- TEST SYSTEM: T1, recombinant human KLK5 C-6His (Novoprotein, Catalog No. C415) (human, UniProt Q9Y337 23-293)
- T1 construct: Bought protein; also called KLK5 protein (Novoprotein); not shown: C-terminal 6xHis tag ('C-6His')
- PROTOCOL DETAILS: ELISA on captured KLK5 C-6His; binder incubated in human serum, day 4
MEASUREMENT NAME: EC50 (nM)
One number for each entry, in nM.

BINDER	UNIT NAME	EC50
Spink9-112.K62G.Fc (SEQ ID NO: 56) (Fc fusion, Mutant SPINK9 domain fused directly to a C-terminal IgG Fc) IECAKQTKQMVDCSHYKKLPPEQELYCTREYDPICGSDGKTYGNDCFFCSKVKKTDGTLKFVHFGKCEPKSCDKTHTCPPCPAPEAAGGPSVFLFPPKPKDTLMISRTPEVTCVVVDVSHEDPEVKFNWYVDGVEVHNAKTKPREEQYNSTYRVVSVLTVLHQDWLNGKEYKCKVSNKALPAPIEKTISKAKGQPREPQVYTLPPSREEMTKNQVSLTCLVKGFYPSDIAVEWESNGQPENNYKTTPPVLDSDGSFFLYSKLTVDKSRWQQGNVFSCSVLHEALHSHYTQKSLSLSPGK	nM	0.16

Continue with the next binder.
Which EC50 value is on record for Spink9-30.Fc (SEQ ID NO: 55) (Fc fusion, Mutant SPINK9 domain fused directly to a C-terminal IgG Fc) IECAKQTKQMVDCSHYKKLPPEQVSWCTREYDPICGSDGKTYKNDCFFCSKVKKTDGTLKFVHFGKCEPKSCDKTHTCPPCPAPEAAGGPSVFLFPPKPKDTLMISRTPEVTCVVVDVSHEDPEVKFNWYVDGVEVHNAKTKPREEQYNSTYRVVSVLTVLHQDWLNGKEYKCKVSNKALPAPIEKTISKAKGQPREPQVYTLPPSREEMTKNQVSLTCLVKGFYPSDIAVEWESNGQPENNYKTTPPVLDSDGSFFLYSKLTVDKSRWQQGNVFSCSVLHEALHSHYTQKSLSLSPGK ? 0.1
